system: anti-desmoglein-3 scFv antibody binding to human DSG3; experiment: blockers of pathogenic pemphigus antibody–desmoglein-3 binding – biochemical, validation compound set, bead-based, flow cytometry, pilot screen (AID 588368); conditions: Protein G beads, DSG3-Fc, scFv-GFP binding, at 10 µM, active compounds read low;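 further: signal is the median channel fluorescence of bead-bound GFP antibody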

compound: CC(=O)NC(Cc1c[nH]c2ccccc12)C(=O)N/N=C/c1ccccc1 (stereo unspecified)
binding (% of control) [%]: 104
--
compound: CCOC(=O)C1=C(C)NC(C)=C(C(=O)OC)C1c1cccc(Cl)c1Cl (stereo unspecified)
binding (% of control) [%]: 106
--
compound: CCCCCCC(=O)N(O)C1CC(=O)N(Cc2ccccc2)C1=O (stereo unspecified)
binding (% of control) [%]: 100
--
compound: Cc1cc(C)nc(NS(=O)(=O)c2ccc(N)cc2)n1
binding (% of control) [%]: 90.1
--
compound: O=C(/C=C/c1ccc2c(c1)OCCCO2)c1ccc2ccccc2c1O
binding (% of control) [%]: 98.5
--
compound: O=C(CCSc1ccccc1)N1CCCC1
binding (% of control) [%]: 91.3
--
compound: O=C(/C=C/c1ccc(F)cc1)N1CC[C@@]2(O)CCCC[C@H]2C1
binding (% of control) [%]: 98
--
compound: Cn1c(=O)[nH]c2nnc(-c3ccc(Cl)c(Cl)c3)nc2c1=O
binding (% of control) [%]: 101
--
compound: COc1ccc(C(Cl)=C(c2ccc(OC)cc2)c2ccc(OC)cc2)cc1
binding (% of control) [%]: 95.8
--
compound: CC(C)N1C(=O)/C(=C\c2nc3ccccc3c(=O)[nH]2)c2ccccc21
binding (% of control) [%]: 101
--
compound: CCOc1ccc(NC2OC(C)C(O)C(O)C2O)c([N+](=O)[O-])c1 (stereo unspecified)
binding (% of control) [%]: 94.8
